# experimental-details: acute toxicity, single oral administration to mice
# condition-context: mouse, in vivo, p.o.
endpoint: LD50

compound | measured-result
O=C(c1cc(-c2ccccc2)c(=O)n2c1-c1cc(Cl)ccc1CC2)N1CCC(O)CC1 [B] | > 5000 mg/kg
CO[C@@H]1CCN(C(=O)c2cc(-c3ccccc3)c(=O)n3ccc4ccsc4c23)C1 [R] | 1250 mg/kg
COC[C@@H]1CCCN1C(=O)c1cc(-c2ccccc2)c(=O)n2ccc3ccc(Cl)cc3c12 [X] | 5000 mg/kg
O=C(c1cc(-c2ccccc2)c(=O)n2ccc3ccc(Cl)cc3c12)N1CCC[C@H]1CO [H] | > 3000 mg/kg
COC1CCN(C(=O)c2cc(-c3ccccc3)c(=O)n3c2-c2sccc2CC3)C1 (stereo not drawn) [U] | > 5000 mg/kg
COC1CCN(C(=O)c2cc(-c3ccccc3)c(=O)n3c2-c2cc(Cl)ccc2CC3)C1 (stereo not drawn) [P] | > 5000 mg/kg
COC[C@@H]1CCCN1C(=O)c1cc(-c2ccccc2)c(=O)n2ccc3ccsc3c12 [F] | 5000 mg/kg
COC1CN(C(=O)c2cc(-c3ccccc3)c(=O)n3ccc4ccsc4c23)C1 [V] | > 5000 mg/kg
CC1CN(C(=O)c2cc(-c3ccccc3)c(=O)n3c2-c2cc(Cl)ccc2CC3)CC(C)O1 (stereo not drawn) [D] | > 5000 mg/kg

Origin of values: patent US4889848A
